Target: Gamma-aminobutyric acid receptor subunit alpha-1 (Bos taurus, UniProt P08219)
Sequence (P08219 whole entry): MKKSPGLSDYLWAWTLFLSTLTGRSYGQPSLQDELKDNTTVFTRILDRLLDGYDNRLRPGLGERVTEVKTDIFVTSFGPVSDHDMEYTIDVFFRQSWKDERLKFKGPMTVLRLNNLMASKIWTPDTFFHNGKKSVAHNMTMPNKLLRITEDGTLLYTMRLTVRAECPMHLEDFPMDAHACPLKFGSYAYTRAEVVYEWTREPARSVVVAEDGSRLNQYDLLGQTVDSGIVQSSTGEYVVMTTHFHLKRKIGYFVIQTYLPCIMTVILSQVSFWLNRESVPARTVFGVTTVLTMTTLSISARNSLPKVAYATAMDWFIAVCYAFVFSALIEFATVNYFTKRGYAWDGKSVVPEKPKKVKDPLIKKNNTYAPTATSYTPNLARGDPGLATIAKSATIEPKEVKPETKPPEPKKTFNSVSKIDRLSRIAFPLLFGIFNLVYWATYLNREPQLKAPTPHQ
Test: Ray2010 Assay 70
endpoint: Ki

Input: May I ask what Ki has been recorded for `CC[C@H]1C[C@@H]2C[C@H]3c4[nH]c5ccc(OC)cc5c4CCN(C2)[C@@H]13` ?
Output: > 100 µM

---

target: 5-hydroxytryptamine receptor 5A (Homo sapiens, UniProt P47898)
Sequence (P47898 whole entry): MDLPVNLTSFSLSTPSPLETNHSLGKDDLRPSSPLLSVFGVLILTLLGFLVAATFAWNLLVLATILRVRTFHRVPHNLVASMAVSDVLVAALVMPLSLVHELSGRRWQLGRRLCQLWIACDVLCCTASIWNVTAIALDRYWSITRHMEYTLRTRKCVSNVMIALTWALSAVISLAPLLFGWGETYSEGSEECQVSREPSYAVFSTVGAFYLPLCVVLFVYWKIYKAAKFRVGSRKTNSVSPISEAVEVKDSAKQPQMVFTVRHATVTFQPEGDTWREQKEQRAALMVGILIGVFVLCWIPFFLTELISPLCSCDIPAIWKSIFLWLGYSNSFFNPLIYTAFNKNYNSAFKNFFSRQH
endpoint: pKi
The read-out pKi is expressed as -log10 of concentration in moles per litre.

Input: May I ask what pKi has been recorded for CCSc1cc(OC)c(CC(N)CC)cc1OC (stereo not given) ?
Output: 5.80

Input: May I ask what pKi has been recorded for COc1cc(CC(C)N)c(OC)cc1Br (stereo not given) ?
Output: 5.27

Input: May I ask what pKi has been recorded for COc1ccc2[nH]cc(CCN(C)C(C)C)c2c1 [5-meo-mipt] ?
Output: 6.02

Input: May I ask what pKi has been recorded for CN(C)CCc1c[nH]c2ccccc12 [2-(1H-indol-3-yl)-N,N-dimethylethanamine] ?
Output: 6.21

Input: May I ask what pKi has been recorded for C[C@@H]1C[C@@H](C)N1C(=O)C1C=C2c3cccc4[nH]cc(c34)C[C@H]2N(C)C1 (stereo not given in full) [ss-2c] ?
Output: 7.56

Input: May I ask what pKi has been recorded for C[C@@H]1C[C@H](C)N1C(=O)C1C=C2c3cccc4[nH]cc(c34)C[C@H]2N(C)C1 (stereo partly drawn) [cis-2a] ?
Output: 7.79

Input: May I ask what pKi has been recorded for CCN(CC)C(=O)N[C@H]1C=C2c3cccc4[nH]cc(c34)C[C@H]2N(C)C1 [lisuride, (S)] ?
Output: 8.51

Input: May I ask what pKi has been recorded for CCCN(CCC)CCc1c[nH]c2ccccc12 [dpt] ?
Output: 5.36

Input: May I ask what pKi has been recorded for CN(C)CCc1c[nH]c2cc(F)ccc12 [6-f-dmt] ?
Output: 6.02

---

molecular target: D(2) dopamine receptor (Homo sapiens); test: Ray2010 Assay 74
Sequence (P14416 whole entry): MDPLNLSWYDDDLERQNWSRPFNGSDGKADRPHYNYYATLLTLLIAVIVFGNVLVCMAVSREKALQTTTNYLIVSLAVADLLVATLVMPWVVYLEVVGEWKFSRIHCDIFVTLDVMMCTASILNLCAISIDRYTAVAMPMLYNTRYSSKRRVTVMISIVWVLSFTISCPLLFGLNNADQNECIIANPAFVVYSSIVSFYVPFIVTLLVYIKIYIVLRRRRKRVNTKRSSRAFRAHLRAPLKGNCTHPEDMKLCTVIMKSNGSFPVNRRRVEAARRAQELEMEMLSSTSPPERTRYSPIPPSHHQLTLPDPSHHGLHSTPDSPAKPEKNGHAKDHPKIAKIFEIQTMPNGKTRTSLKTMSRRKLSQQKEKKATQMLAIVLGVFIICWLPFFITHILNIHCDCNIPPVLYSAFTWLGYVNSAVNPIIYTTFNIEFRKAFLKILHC
pKi: −log10 of the molar value.
endpoint: pKi

Input: Observed pKi on D(2) dopamine receptor (Homo sapiens) for `COc1ccc2[nH]c(C)c(CCN(C)C)c2c1` , please.
Output: < 5.00

Input: Observed pKi on D(2) dopamine receptor (Homo sapiens) for CCN(CC)C(=O)[C@@H]1C=C2c3cccc4[nH]cc(c34)C[C@H]2N(C)C1 [[N-methyl-3H]LSD] , please.
Output: 6.96

Input: Observed pKi on D(2) dopamine receptor (Homo sapiens) for COc1cc(CC(C)N)c(OC)cc1Br (stereo not drawn) , please.
Output: < 5.00

---

endpoint: Ki

Input: Observed Ki on Beta-1 adrenergic receptor (Rattus norvegicus) for `CC[C@H]1C[C@@H]2C[C@H]3c4[nH]c5ccc(OC)cc5c4CCN(C2)[C@@H]13` , please.
Sequence (P18090 whole entry): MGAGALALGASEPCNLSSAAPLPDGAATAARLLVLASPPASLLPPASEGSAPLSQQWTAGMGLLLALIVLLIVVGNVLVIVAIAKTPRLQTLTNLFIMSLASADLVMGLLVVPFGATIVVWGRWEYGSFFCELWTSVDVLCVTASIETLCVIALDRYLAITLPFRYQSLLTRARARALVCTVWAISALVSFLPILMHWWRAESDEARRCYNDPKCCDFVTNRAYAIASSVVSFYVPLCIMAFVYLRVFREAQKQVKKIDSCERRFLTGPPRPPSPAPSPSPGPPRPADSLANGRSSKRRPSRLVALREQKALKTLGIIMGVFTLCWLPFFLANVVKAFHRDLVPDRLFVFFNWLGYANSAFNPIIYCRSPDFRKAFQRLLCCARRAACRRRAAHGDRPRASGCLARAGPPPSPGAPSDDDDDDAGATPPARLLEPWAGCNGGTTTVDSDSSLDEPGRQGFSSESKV
Output: > 100 µM

---

Assign pKi to each entry below.
The read-out pKi is expressed as -log10 of concentration in moles per litre.

Input: Observed pKi on 5-hydroxytryptamine receptor 2A (Homo sapiens, UniProt P28223) for CCCN(CCC)CCc1c[nH]c2ccccc12 [dpt] , please.
Sequence (P28223 whole entry): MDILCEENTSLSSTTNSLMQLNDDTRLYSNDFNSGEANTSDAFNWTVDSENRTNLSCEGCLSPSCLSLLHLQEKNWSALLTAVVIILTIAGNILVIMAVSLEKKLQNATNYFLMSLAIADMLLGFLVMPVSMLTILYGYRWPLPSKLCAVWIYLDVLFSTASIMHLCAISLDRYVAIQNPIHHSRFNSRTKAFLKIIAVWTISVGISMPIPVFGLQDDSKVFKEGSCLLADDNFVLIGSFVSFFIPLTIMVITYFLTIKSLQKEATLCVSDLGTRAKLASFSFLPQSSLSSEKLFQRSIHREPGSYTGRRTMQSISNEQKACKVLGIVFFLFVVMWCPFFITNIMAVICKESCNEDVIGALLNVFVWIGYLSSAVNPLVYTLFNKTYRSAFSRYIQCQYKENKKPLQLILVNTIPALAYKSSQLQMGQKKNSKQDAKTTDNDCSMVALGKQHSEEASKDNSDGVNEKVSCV
Output: 5.59

Input: Observed pKi on 5-hydroxytryptamine receptor 2A (Homo sapiens, UniProt P28223) for CCSc1cc(OC)c(CC(N)CC)cc1OC (stereo unspecified) , please.
Output: 6.56

Input: Observed pKi on 5-hydroxytryptamine receptor 2A (Homo sapiens, UniProt P28223) for COc1cc(OC)c(OC)cc1CC(C)N (stereo unspecified) , please.
Output: 6.23

Input: Observed pKi on 5-hydroxytryptamine receptor 2A (Homo sapiens, UniProt P28223) for CCSc1cc(OC)c(CCN)cc1OC [2C-T-2] , please.
Output: 7.40

Input: Observed pKi on 5-hydroxytryptamine receptor 2A (Homo sapiens, UniProt P28223) for C[C@@H]1C[C@H](C)N1C(=O)C1C=C2c3cccc4[nH]cc(c34)C[C@H]2N(C)C1 (stereo partly drawn) [cis-2a] , please.
Output: 7.53

Input: Observed pKi on 5-hydroxytryptamine receptor 2A (Homo sapiens, UniProt P28223) for `COc1cc(CCN)c(OC)cc1Br` , please.
Output: 7.56

---

molecular target: Sigma non-opioid intracellular receptor 1 (Cavia porcellus, UniProt Q60492); assay: Ray2010 Assay 39
Sequence (Q60492 whole entry): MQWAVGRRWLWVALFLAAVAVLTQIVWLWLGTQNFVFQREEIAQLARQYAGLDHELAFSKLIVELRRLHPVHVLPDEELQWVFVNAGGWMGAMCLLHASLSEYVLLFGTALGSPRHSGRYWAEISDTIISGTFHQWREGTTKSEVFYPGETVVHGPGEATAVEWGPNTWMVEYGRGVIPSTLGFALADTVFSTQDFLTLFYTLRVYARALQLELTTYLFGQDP
endpoint: Ki (µM)
Answer format: numeric, µM implied, no suffix.

Input: May I ask what Ki has been recorded for `CC[C@H]1C[C@@H]2C[C@H]3c4[nH]c5ccc(OC)cc5c4CCN(C2)[C@@H]13` ?
Output: 9.31

---

biological target: 5-hydroxytryptamine receptor 2B (Homo sapiens, UniProt P41595)
Sequence (P41595 whole entry): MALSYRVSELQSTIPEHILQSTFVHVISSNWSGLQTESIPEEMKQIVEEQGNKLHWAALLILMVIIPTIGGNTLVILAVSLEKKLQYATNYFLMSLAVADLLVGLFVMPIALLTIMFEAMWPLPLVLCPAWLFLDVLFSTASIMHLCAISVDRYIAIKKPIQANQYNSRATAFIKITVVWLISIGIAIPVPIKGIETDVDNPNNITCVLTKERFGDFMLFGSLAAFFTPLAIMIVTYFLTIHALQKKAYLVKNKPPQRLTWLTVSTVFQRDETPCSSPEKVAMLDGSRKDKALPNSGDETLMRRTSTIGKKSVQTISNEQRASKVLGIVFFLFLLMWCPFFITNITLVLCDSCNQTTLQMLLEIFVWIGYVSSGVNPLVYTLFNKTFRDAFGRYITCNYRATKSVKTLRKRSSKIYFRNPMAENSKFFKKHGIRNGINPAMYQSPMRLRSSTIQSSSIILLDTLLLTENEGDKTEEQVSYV
The label is yes for Ki below 30 nM and no for Ki equal to or exceeding 30 nM.

Input: Lab log: compare recorded Ki with 30 nM; is it strictly lower for `COC(=O)[C@@H]1C[C@H](OC(C)=O)C(=O)[C@H]2[C@@]1(C)CC[C@H]1C(=O)O[C@H](c3ccoc3)C[C@]21C` ?
Output: no

Input: Lab log: compare recorded Ki with 30 nM; is it strictly lower for `COc1cc(CCN)c(OC)cc1Br` ?
Output: yes

Input: Lab log: compare recorded Ki with 30 nM; is it strictly lower for `COc1ccc2[nH]cc(CCN(C)C(C)C)c2c1` ?
Output: no

Input: Lab log: compare recorded Ki with 30 nM; is it strictly lower for `COc1ccc2[nH]cc(CCN(C(C)C)C(C)C)c2c1` ?
Output: no

Input: Lab log: compare recorded Ki with 30 nM; is it strictly lower for `CCc1cc(OC)c(CCN)cc1OC` ?
Output: yes

Input: Lab log: compare recorded Ki with 30 nM; is it strictly lower for COc1cc(CC(C)N)c(OC)cc1C (stereo not given) ?
Output: yes

Input: Lab log: compare recorded Ki with 30 nM; is it strictly lower for `CC(C)N(CCc1c[nH]c2ccccc12)C(C)C` ?
Output: no

Input: Lab log: compare recorded Ki with 30 nM; is it strictly lower for CCSc1cc(OC)c(CC(C)N)cc1OC (stereo not given) ?
Output: yes

Input: Lab log: compare recorded Ki with 30 nM; is it strictly lower for C[C@@H]1C[C@@H](C)N1C(=O)C1C=C2c3cccc4[nH]cc(c34)C[C@H]2N(C)C1 (stereo not given in full) [ss-2c] ?
Output: yes

---

Here's a batch of compounds along with measured Ki for Glutamate receptor 4 (Homo sapiens).

Input: May I ask what Ki has been recorded for CCc1[nH]c2ccc(OC)cc2c1CCN(C)C [2-ethyl-5-methoxy-N,N-dimethyltryptamine] ?
Output: > 10 µM

Input: May I ask what Ki has been recorded for `CC[C@H]1C[C@@H]2C[C@H]3c4[nH]c5ccc(OC)cc5c4CCN(C2)[C@@H]13` ?
Output: > 10 µM

Input: May I ask what Ki has been recorded for `COc1ccc2[nH]c(C)c(CCN(C)C)c2c1` ?
Output: > 10 µM

---

Assign pKi to each entry below.
target: Glutamate receptor ionotropic, NMDA 2A (Homo sapiens, UniProt Q12879); test: Ray2010 Assay 74
Sequence (Q12879 whole entry): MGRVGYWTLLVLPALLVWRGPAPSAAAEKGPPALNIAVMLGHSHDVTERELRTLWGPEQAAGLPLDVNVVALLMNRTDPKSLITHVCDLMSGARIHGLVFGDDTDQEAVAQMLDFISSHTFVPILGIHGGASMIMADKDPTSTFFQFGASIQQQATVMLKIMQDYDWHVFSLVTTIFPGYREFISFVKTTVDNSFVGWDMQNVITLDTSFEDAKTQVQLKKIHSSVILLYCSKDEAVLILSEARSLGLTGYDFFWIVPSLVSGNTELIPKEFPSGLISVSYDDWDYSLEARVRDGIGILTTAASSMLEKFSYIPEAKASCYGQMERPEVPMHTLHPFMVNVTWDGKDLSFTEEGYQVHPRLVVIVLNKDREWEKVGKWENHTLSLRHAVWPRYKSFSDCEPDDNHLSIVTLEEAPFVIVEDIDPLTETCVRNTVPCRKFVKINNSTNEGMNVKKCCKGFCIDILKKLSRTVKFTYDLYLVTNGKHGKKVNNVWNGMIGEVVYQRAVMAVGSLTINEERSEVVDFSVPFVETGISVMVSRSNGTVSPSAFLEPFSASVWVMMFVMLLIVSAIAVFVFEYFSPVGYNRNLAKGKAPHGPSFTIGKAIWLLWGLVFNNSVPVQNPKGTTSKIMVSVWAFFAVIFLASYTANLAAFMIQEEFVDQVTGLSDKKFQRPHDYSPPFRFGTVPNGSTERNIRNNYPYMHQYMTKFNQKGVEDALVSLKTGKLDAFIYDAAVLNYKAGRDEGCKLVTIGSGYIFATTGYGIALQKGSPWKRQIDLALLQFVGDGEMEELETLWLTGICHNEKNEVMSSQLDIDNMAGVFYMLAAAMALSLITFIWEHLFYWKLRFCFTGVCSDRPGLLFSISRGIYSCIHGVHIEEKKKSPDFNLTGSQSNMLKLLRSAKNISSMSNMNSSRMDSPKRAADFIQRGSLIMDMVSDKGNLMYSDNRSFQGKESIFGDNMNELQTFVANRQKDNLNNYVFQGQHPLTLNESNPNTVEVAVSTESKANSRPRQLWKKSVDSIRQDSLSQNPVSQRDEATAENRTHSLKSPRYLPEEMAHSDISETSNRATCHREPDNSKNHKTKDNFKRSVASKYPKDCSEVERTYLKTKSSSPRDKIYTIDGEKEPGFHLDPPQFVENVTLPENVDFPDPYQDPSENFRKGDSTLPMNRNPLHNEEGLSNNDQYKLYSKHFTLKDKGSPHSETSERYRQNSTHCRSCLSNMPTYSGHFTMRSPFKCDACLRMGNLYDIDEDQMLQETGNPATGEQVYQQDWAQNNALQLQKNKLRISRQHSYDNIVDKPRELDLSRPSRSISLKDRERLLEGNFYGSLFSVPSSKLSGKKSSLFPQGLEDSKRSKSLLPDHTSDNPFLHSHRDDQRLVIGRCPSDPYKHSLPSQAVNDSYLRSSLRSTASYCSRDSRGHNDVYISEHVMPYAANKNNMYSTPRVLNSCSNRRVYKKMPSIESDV
pKi: −log10 of the molar value.

Input: May I ask what pKi has been recorded for CNC(C)Cc1ccc2c(c1)OCO2 (stereo unspecified) [mdma] ?
Output: < 5.00

Input: May I ask what pKi has been recorded for COc1ccc2[nH]cc(CCN(C)C(C)C)c2c1 [5-meo-mipt] ?
Output: < 5.00

Input: May I ask what pKi has been recorded for COc1ccc2[nH]cc(CCN(C(C)C)C(C)C)c2c1 [5-meo-dipt] ?
Output: < 5.00

Input: May I ask what pKi has been recorded for COc1cc(CC(C)N)c(OC)cc1C (stereo unspecified) ?
Output: < 5.00

Input: May I ask what pKi has been recorded for CCOc1cc(OC)c(CC(C)N)cc1OC (stereo unspecified) ?
Output: < 5.00

Input: May I ask what pKi has been recorded for `CC[C@H]1C[C@@H]2C[C@H]3c4[nH]c5ccc(OC)cc5c4CCN(C2)[C@@H]13` ?
Output: 5.70

Input: May I ask what pKi has been recorded for COc1cc(CC(C)N)cc(OC)c1OC (stereo unspecified) ?
Output: < 5.00

Input: May I ask what pKi has been recorded for C[C@@H]1C[C@@H](C)N1C(=O)C1C=C2c3cccc4[nH]cc(c34)C[C@H]2N(C)C1 (stereo partly specified) [rr-2b] ?
Output: < 5.00

Input: May I ask what pKi has been recorded for `COc1ccc2[nH]c(C)c(CCN(C)C)c2c1` ?
Output: < 5.00

Input: May I ask what pKi has been recorded for COc1cc(CCN)cc(OC)c1OC [3,4,5-trimethoxyphenylethylamine] ?
Output: < 5.00

Input: May I ask what pKi has been recorded for CCc1cc(OC)c(CC(C)N)cc1OC (stereo unspecified) ?
Output: < 5.00

Reference for the values: BindingDB's records for PubMed 20126400
